Numbers sourced from the supplement of paper PMC11208160.

recombinant barcode read abundance (log10) values by entry
# Test Description: recombinant barcode read abundance after kanamycin selection (control-corrected) (log10(CPM+1)); higher = more efficient recombination; sequences stand for … in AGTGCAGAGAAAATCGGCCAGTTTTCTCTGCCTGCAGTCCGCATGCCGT…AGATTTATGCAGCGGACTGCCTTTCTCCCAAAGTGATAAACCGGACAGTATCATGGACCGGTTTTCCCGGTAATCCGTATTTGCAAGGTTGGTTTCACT; site = the 11-nt target
Format: numeric value only, no unit, no commentary.

AGGTTCCCTTGGGTTCTAACCTGTTGCTG (site AGGTTCCCTGA); 0.142
TAGTCAGCTTGGGTTCTAACCTGTTGCAC (site TGGTCGGCTGT); 0.00985
AAGCCGCCTTGGGTTCTAACCTGTTGCTT (site TCAATAGCTGT); 0.35
ATTTCGACTTGGGTTCTAACCTGTTGCCT (site AATTCGACTAG); 0.0716
CTCATTCCTTGGGTTCTAACCTGTTGCAT (site CTCATTCCTAC); 0.0351

Query block: Please look at this sequence and report its recombinant barcode read abundance (log10): CTCATTCCTTGGGTTCTAACCTGTTGCAT (site CTCATTCCTAG)
Result block: 0.112

Query block: Please look at this sequence and report its recombinant barcode read abundance (log10): GCATCGGCTTGGGTTCTAACCTGTTGCCT (site GCGTCGGCTAG)
Result block: 0.0974

Query block: Please look at this sequence and report its recombinant barcode read abundance (log10): GTGAGGCCTTGGGTTCTAACCTGTTGCCT (site ATGAGGCCTAG)
Result block: 1.19

Query block: Please look at this sequence and report its recombinant barcode read abundance (log10): ACAGGATCTTGGGTTCTAACCTGTTGCTT (site ACAGAATCTAG)
Result block: 0.55

Query block: Please look at this sequence and report its recombinant barcode read abundance (log10): CTAGTGACTTGGGTTCTAACCTGTTGCGA (site CTAGTGACTTC)
Result block: 1.99

###

recombinant barcode read abundance (log10) values by entry
# Test Description: recombinant barcode read abundance after kanamycin selection (control-corrected) (log10(CPM+1)); higher = more efficient recombination; sequences stand for … in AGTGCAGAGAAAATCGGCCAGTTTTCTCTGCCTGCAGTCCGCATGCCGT…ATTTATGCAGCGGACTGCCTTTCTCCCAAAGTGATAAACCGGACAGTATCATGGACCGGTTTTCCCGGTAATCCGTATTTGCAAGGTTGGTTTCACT; site = the 11-nt target
Format: numeric value only, no unit, no commentary.

Query block: Please look at this sequence and report its recombinant barcode read abundance (log10): CGGTCCCCATGGGTTCTAACCTGTTGCCAAG [CGGTCCCCTTG_LTGcore_CA_RTGcore_CT] (site CGGTCCCCTTG) (LTG core: CA, RTG core: CT)
Result block: 0.51

###

# Test Description: recombinant barcode read abundance after kanamycin selection (control-corrected) (log10(CPM+1)); higher = more efficient recombination; sequences stand for … in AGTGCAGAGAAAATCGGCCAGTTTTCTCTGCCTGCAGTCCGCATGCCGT…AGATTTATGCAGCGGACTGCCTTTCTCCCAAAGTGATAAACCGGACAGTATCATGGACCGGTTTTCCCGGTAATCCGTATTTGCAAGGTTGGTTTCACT; site = the 11-nt target
Class rule met: recombinant barcode read abundance (log10) at least 0.1. Class rule not met: recombinant barcode read abundance (log10) below 0.1.

ACCCAGCCTTGGGTTCTAACCTGTTGCCT (site ACCCAGCCTAA); rule met

Query block: Decide: is the reported value of recombinant barcode read abundance (log10) for CCTGTCACTTGGGTTCTAACCTGTTGCCA (site TACCGAGCTCA) equal to or greater than 0.1?
Result block: rule met

Query block: Decide: is the reported value of recombinant barcode read abundance (log10) for CTCGTAACTTGGGTTCTAACCTGTTGCCT (site CTCGTTACTAG) equal to or greater than 0.1?
Result block: rule met

Query block: Decide: is the reported value of recombinant barcode read abundance (log10) for ATCGAGTCTTGGGTTCTAACCTGTTGCCT (site ATCGAGTCTAG) equal to or greater than 0.1?
Result block: rule met

Query block: Decide: is the reported value of recombinant barcode read abundance (log10) for ACATCAACTTGGGTTCTAACCTGTTGCCT (site ACCTCAACTAG) equal to or greater than 0.1?
Result block: rule not met

###

recombinant barcode read abundance (log10) values by entry
# Test Description: recombinant barcode read abundance after kanamycin selection (control-corrected) (log10(CPM+1)); higher = more efficient recombination; sequences stand for … in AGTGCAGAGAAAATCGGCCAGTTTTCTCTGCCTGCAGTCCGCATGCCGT…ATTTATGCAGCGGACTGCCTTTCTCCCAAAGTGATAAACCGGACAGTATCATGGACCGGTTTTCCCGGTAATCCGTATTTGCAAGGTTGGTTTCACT; site = the 11-nt target
Format: numeric value only, no unit, no commentary.

Example cases with answers are listed next.
GCGGGACGGTGGGTTCTAACCTGTTGCCTCC [GCGGGACCTAG_LTGcore_GG_RTGcore_GG] (site GCGGGACCTAG) (LTG core: GG, RTG core: GG); 0.182
CGAGCCCGTTGGGTTCTAACCTGTTGCTGAC [CGAGCCCCTCA_LTGcore_GT_RTGcore_GT] (site CGAGCCCCTCA) (LTG core: GT, RTG core: GT); 0.156
GGTGCCCTTTGGGTTCTAACCTGTTGCCGAG [GGTGCCCCTCG_LTGcore_TT_RTGcore_CT] (site GGTGCCCCTCG) (LTG core: TT, RTG core: CT); 0.0486

Query block: Please look at this sequence and report its recombinant barcode read abundance (log10): TGATACCCGTGGGTTCTAACCTGTTGCGTCG [TGATACCCTAC_LTGcore_CG_RTGcore_CG] (site TGATACCCTAC) (LTG core: CG, RTG core: CG)
Result block: 0.0552

Query block: Please look at this sequence and report its recombinant barcode read abundance (log10): AGGCCTCCTTGGGTTCTAACCTGTTGCCTGG [AGGCCTCCTAG_LTGcore_CT_RTGcore_CC] (site AGGCCTCCTAG) (LTG core: CT, RTG core: CC)
Result block: 0.337

Query block: Please look at this sequence and report its recombinant barcode read abundance (log10): AGGCGGGCATGGGTTCTAACCTGTTGCGGAG [AGGCGGGCTCC_LTGcore_CA_RTGcore_CT] (site AGGCGGGCTCC) (LTG core: CA, RTG core: CT)
Result block: 2.3

###

# Test Description: recombinant barcode read abundance after kanamycin selection (control-corrected) (log10(CPM+1)); higher = more efficient recombination; sequences stand for … in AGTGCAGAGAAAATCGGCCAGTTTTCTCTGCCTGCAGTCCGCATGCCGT…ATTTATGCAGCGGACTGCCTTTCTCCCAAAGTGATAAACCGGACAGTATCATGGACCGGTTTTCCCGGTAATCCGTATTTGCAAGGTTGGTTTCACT; site = the 11-nt target
Class satisfied: recombinant barcode read abundance (log10) at least 0.4. Class not satisfied: recombinant barcode read abundance (log10) below 0.4.

Query block: Decide: is the reported value of recombinant barcode read abundance (log10) for GAGTCCACTTGGGTTCTAACCTGTTGCGTTC [GAGTCCACTAC_LTGcore_CT_RTGcore_GA] (site GAGTCCACTAC) (LTG core: CT, RTG core: GA) equal to or greater than 0.4?
Result block: satisfied

Query block: Decide: is the reported value of recombinant barcode read abundance (log10) for GTCGCCCTGTGGGTTCTAACCTGTTGCTACA [GTCGCCCCTTA_LTGcore_TG_RTGcore_TG] (site GTCGCCCCTTA) (LTG core: TG, RTG core: TG) equal to or greater than 0.4?
Result block: satisfied

Query block: Decide: is the reported value of recombinant barcode read abundance (log10) for CGAGCCCTCTGGGTTCTAACCTGTTGCTGAG [CGAGCCCCTCA_LTGcore_TC_RTGcore_CT] (site CGAGCCCCTCA) (LTG core: TC, RTG core: CT) equal to or greater than 0.4?
Result block: not satisfied

Query block: Decide: is the reported value of recombinant barcode read abundance (log10) for TGATACCCTTGGGTTCTAACCTGTTGCGTTG [TGATACCCTAC_LTGcore_CT_RTGcore_CA] (site TGATACCCTAC) (LTG core: CT, RTG core: CA) equal to or greater than 0.4?
Result block: satisfied

Query block: Decide: is the reported value of recombinant barcode read abundance (log10) for GGGAGCCCATGGGTTCTAACCTGTTGCTGAG [GGGAGCCCTCA_LTGcore_CA_RTGcore_CT] (site GGGAGCCCTCA) (LTG core: CA, RTG core: CT) equal to or greater than 0.4?
Result block: satisfied

Query block: Decide: is the reported value of recombinant barcode read abundance (log10) for GAGTCCACTTGGGTTCTAACCTGTTGCGTGG [GAGTCCACTAC_LTGcore_CT_RTGcore_CC] (site GAGTCCACTAC) (LTG core: CT, RTG core: CC) equal to or greater than 0.4?
Result block: not satisfied

Query block: Decide: is the reported value of recombinant barcode read abundance (log10) for GTCGCCCCCTGGGTTCTAACCTGTTGCTAGG [GTCGCCCCTTA_LTGcore_CC_RTGcore_CC] (site GTCGCCCCTTA) (LTG core: CC, RTG core: CC) equal to or greater than 0.4?
Result block: satisfied
